# test target: cAMP and cAMP-inhibited cGMP 3',5'-cyclic phosphodiesterase 10A (Homo sapiens, UniProt Q9Y233)
# Sequence (Q9Y233 as listed by the source): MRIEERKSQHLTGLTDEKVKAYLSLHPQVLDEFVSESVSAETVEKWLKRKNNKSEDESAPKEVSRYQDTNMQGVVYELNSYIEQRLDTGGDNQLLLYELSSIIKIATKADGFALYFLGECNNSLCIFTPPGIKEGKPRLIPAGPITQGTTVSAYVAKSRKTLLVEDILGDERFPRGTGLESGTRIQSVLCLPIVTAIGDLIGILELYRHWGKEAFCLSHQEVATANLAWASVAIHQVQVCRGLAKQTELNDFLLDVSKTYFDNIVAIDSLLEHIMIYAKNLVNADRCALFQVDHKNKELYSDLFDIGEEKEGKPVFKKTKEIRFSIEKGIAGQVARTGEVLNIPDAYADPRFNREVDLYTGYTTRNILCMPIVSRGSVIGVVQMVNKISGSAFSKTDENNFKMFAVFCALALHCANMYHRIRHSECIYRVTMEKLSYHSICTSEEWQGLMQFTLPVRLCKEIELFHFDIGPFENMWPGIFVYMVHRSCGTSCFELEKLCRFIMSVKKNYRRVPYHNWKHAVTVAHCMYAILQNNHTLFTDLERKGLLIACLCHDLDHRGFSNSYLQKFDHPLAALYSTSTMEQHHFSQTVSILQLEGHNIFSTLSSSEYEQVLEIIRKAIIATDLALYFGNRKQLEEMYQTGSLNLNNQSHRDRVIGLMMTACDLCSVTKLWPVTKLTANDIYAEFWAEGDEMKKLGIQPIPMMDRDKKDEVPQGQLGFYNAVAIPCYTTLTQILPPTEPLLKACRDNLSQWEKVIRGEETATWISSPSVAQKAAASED
Decision: IC50 beneath 200 nM gives yes (1); IC50 meeting or exceeding 200 nM gives no (0).

Cc1ncc(C)n2nc(CCc3nc(N4CCCC4)nn3C)nc12 [Roche-Dataset for PDE10A, Compound 626] ... yes (1)

**Query** Does this compound meet the criterion IC50 < 200 nM? `O=C(NCCO)c1ncccc1NC(=O)c1nc(C2CC2)cnc1Nc1cncnc1`
**Result** yes (1)

**Query** Does this compound meet the criterion IC50 < 200 nM? `O=C(Nc1cc(-c2ccccn2)nn1C1CCCCC1)c1nc(C2CC2)ccc1Nc1cncnc1`
**Result** yes (1)

**Query** Does this compound meet the criterion IC50 < 200 nM? O=C(c1nc(C2CC2)cnc1Nc1cncnc1)N1CCC(N2CCOCC2)CC1 [Roche-Dataset for PDE10A, Compound 1098]
**Result** no (0)

**Query** Does this compound meet the criterion IC50 < 200 nM? CNC(=O)c1c(NC(=O)c2c(C(=O)N3CCC3)cnn2C)cnn1C [Roche-Dataset for PDE10A, Compound 1129]
**Result** no (0)

**Query** Does this compound meet the criterion IC50 < 200 nM? Cc1cnc(C)n2nc(/C=C/c3nc(Br)nn3C)nc12 [Roche-Dataset for PDE10A, Compound 1128]
**Result** no (0)

**Query** Does this compound meet the criterion IC50 < 200 nM? COCCN(C)C(=O)c1cnn(C)c1C(=O)Nc1ccn2cc(-c3cccc(OCCF)c3)nc2n1 [Roche-Dataset for PDE10A, Compound 45]
**Result** yes (1)

**Query** Does this compound meet the criterion IC50 < 200 nM? Cc1ncc(C)n2nc(/C=C/c3nc(C)n(-c4ccccc4)n3)nc12 [Roche-Dataset for PDE10A, Compound 720]
**Result** yes (1)

**Query** Does this compound meet the criterion IC50 < 200 nM? O=C(NCc1ccncn1)c1nc(C2CC2)cnc1Nc1cncnc1 [Roche-Dataset for PDE10A, Compound 1017]
**Result** no (0)

**Query** Does this compound meet the criterion IC50 < 200 nM? COc1ccccc1-c1cn2c(n1)C[C@H](NC(=O)c1c(C(=O)N3CCC3)cnn1C)CC2 [Roche-Dataset for PDE10A, Compound 330]
**Result** yes (1)
